// data source = patent EP3061768A1

# TARGET ENTITY: T1, neutravidin (UniProt P02701 25-152)
# T1 construct: Control wells without biotinylated IL-1 Beta
# T1 sequence (P02701 25-152): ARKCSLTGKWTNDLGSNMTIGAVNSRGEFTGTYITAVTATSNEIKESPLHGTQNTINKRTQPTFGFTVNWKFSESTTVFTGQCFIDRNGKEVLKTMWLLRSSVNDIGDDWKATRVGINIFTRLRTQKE
# ASSAY SUMMARY: phage ELISA, crude phage extract, anti-M13-HRP

{"BINDER": "wt 1E2 gene3-Fab fusion on phage (Fab, V domains shown, crude phage extract; also called wt 1E2 (phage)) VH: EVQLVESGGGLVQPGGSLRLSCTASGFTFSNYWMYWVRQAPGKGLEWVSAINAAGSTYYADSVKGRFTISRDNAKNTLYLQMNSLQSEDTALYYCANLPRWGQGTQVTVSS VL: QTVVTQEPSLSVSPGGTVTLTCGLSSGSVTSGNYPGWYQQKPGQAPRTLIYNTNSRYSGVPNRFSGSISGNKAALTITGAQPEDEADYYCAVYIGSSSYPVVFGGGTHLTVLG", "binding result": "no binding"}
{"BINDER": "safe variant 1E2 gene3-Fab fusion on phage (Fab, V domains shown, The text says 'partially humanized V lambda fused to human C lambda and CH1'; also called safe 1E2) VH: EVQLVESGGGLVQPGGSLRLSCAASGFTFSNYWMYWVRQAPGKGLEWVSAINAAGSTYYADSVKGRFTISRDNSKNTLYLQMNSLQSEDTAVYYCANLPRWGQGTQVTVSS VL: QTVVTQEPSFSVSPGGTVTLTCGLSSGSVTSGNYPGWYQQKPGQAPRTLIYNTNSRSSGVPDRFSGSILGNKAALTITGAQPDDESDYYCAVYIGSSSYPVVFGGGTHLTVLG", "binding result": "no binding"}
{"BINDER": "hum 1E2 gene3-Fab fusion on phage (Fab, V domains shown, also called fully humanized 1E2) VH: EVQLVESGGGLVQPGGSLRLSCAASGFTFSNYWMYWVRQAPGKGLEWVSAINAAGSTYYADSVKGRFTISRDNSKNTLYLQMNSLRAEDTAVYYCANLPRWGQGTLVTVSS VL: QTVVTQEPSFSVSPGGTVTLTCGLSSGSVTSGNYPGWYQQTPGQAPRTLIYNTNSRSSGVPDRFSGSILGNKAALTITGAQADDESDYYCAVYIGSSSYPVVFGGGTKLTVLG", "binding result": "no binding"}
